Assay: Stability in human liver microsomes
Format: in vitro ADME
Settings: pH 7.4, 2 μM test compound, 0.42 mg/mL microsomal protein, 37° C., NADPH, read-out: t1/2 in human liver microsomes
property: half-life at 2 μM
I'd appreciate it if you wrote the number followed by its unit.

The examples below pair each entry with its known result.
{"compound": "[2H]C([2H])([2H])O/C=C(/C(=O)OC([2H])([2H])[2H])[C@H]1C[C@H]2c3[nH]c4cccc(OC([2H])([2H])[2H])c4c3CCN2C[C@H]1CC", "half-life at 2 μM": "0.585 h"}
{"compound": "CC[C@@H]1CN2CCc3c([nH]c4cccc(OC)c34)[C@@H]2C[C@@H]1/C(=C\\OC)C(=O)OC", "half-life at 2 μM": "0.447 h"}
{"compound": "[2H]CO/C=C(/C(=O)OC([2H])([2H])[2H])[C@H]1C[C@H]2C3=Nc4cccc(OC([2H])([2H])[2H])c4[C@@]3(O)CCN2C[C@H]1CC", "half-life at 2 μM": "6.57 h"}

half-life at 2 μM recorded for this compound, CC[C@@H]1CN2CC[C@@]3(O)C(=Nc4cccc(OC)c43)[C@@H]2C[C@@H]1/C(=C\OC)C(=O)OC [7-hydroxymitragynine, 7-Hydroxymitragynine] , is 4.38 h

====

Biological target: human kappa-opioid receptor (KOR) (Homo sapiens, UniProt P41145)
Construct: expressed in transfected cells; host or cells: HEK-293T
Experiment: BRET assay measuring G protein activation, antagonist competition vs U-50,488, human KOR
Type: cell-based
property: Ki (nM)
Give just the numeric value; nM need not be written.

Record summary for CC[C@@H]1CN2CC[C@@]3(O)C(=Nc4cccc(OC)c43)[C@@H]2C[C@@H]1/C(=C\OC)C(=O)OC [7-hydroxymitragynine, 7-Hydroxymitragynine] : reported Ki = 490

====

Molecular target: human mu-opioid receptor (MOR) (Homo sapiens, UniProt P35372)
Test: BRET assay measuring G protein activation, agonist mode, human MOR
Description: […] Transfected cells were dissociated and resuspended in phosphate-buffered saline (PBS). […] After 5 minutes, ligands were added and the BRET signal was measured at 5 minutes on a PHERAstar FS plate reader. […] The BRET signal was quantified by calculating the ratio of the light emitted by the energy acceptor, mVenus (510-540 nm), over the light emitted by the energy donor, RLuc8 (485 nm). […]
property: pEC50
Value format note: pEC50 is -log10 of concentration (mol/L); just state the number.

Noted for CC[C@@H]1CN2CC[C@]3(Nc4cccc(OC)c4C3=O)[C@@H]2C[C@@H]1/C(=C\OC)C(=O)OC [mitragynine pseudoindoxyl] : its pEC50 reads 7.84

====

Parameter IC50: see the listing below.
Target: human delta-opioid receptor (DOR) (Homo sapiens)
Construct: expressed in transfected cells; host or cells: HEK-293T
Test: BRET assay measuring G protein activation, antagonist competition vs DPDPE, human DOR
Format: cell-based
Number only, in µM; omit the unit.

{"molecule": "CC[C@@H]1CN2CC[C@]3(Nc4cccc(OC)c4C3=O)[C@@H]2C[C@@H]1/C(=C\\OC)C(=O)OC", "IC50 / µM": 0.609}

Let's switch to this molecule now.
Entry CC[C@@H]1CN2CC[C@@]3(O)C(=Nc4cccc(OC)c43)[C@@H]2C[C@@H]1/C(=C\OC)C(=O)OC [7-hydroxymitragynine, 7-Hydroxymitragynine] ; IC50 = 15.6

src = patent US11912707B2
